# Tested on: PDC KRAS tumor spheroids with HUVEC/MSC, viability;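 note: spheroids exposed to compounds for seven days before readout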
# method: Anticancer human tumor 349418-098-R-PDC patient-derived lung adenocarcinoma cell line growth inhibition [KRAS2]; active = viability on the fitted dose curve at most 10% of control; inactive = the rest
# details: second compound 0.1 µM; first compound 0.1 µM
Pick one: active, inactive

Ask | Which result was noted for this compound in the test: Cn1ncnc1[C@H]1c2n[nH]c(=O)c3cc(F)cc(c23)N[C@@H]1c1ccc(F)cc1 + COc1cc2nc(C)nc(NC(C)c3cc(N)cc(C(F)(F)F)c3)c2cc1OC1CCOC1
Reply | inactive

Ask | Which result was noted for this compound in the test: CC1COCCN1c1cc(-c2ccnn2C)c2ccnc(-c3ccn[nH]3)c2n1 (stereo not given) + COc1cc2nc(C)nc(NC(C)c3cc(N)cc(C(F)(F)F)c3)c2cc1OC1CCOC1
Reply | active

Ask | Which result was noted for this compound in the test: CC(C)NCC(C(=O)N1CCN(c2ncnc3c2C(C)CC3O)CC1)c1ccc(Cl)cc1 (stereo not given) + C=CC(=O)N1CCN(c2nc(OCC3CCCN3C)nc3c2CCN(c2cccc4cccc(C)c24)C3)CC1CC#N
Reply | inactive

Ask | Which result was noted for this compound in the test: CC1(C)CCC(CN2CCN(c3ccc(C(=O)NS(=O)(=O)c4ccc(NCC5CCOCC5)c([N+](=O)[O-])c4)c(Oc4cnc5[nH]ccc5c4)c3)CC2)=C(c2ccc(Cl)cc2)C1 + CNCc1ccccc1-c1csc(C(C)Nc2nc(C)nc3cc(OC)c(OC)cc23)c1
Reply | inactive

Ask | Which result was noted for this compound in the test: CC1COCCN1c1cc(-c2ccnn2C)c2ccnc(-c3ccn[nH]3)c2n1 (stereo not given) + C=CC(=O)N1CCN(c2nc(OCC3CCCN3C)nc3c2CCN(c2cccc4cccc(C)c24)C3)CC1CC#N
Reply | active

Ask | Which result was noted for this compound in the test: CC(=O)OC12COC1CC(O)C1(C)C(=O)C(O)C3=C(C)C(OC(=O)C(O)C(NC(=O)OC(C)(C)C)c4ccccc4)CC(O)(C(OC(=O)c4ccccc4)C21)C3(C)C (stereo not given) + C=CC(=O)N1CCN(c2nc(=O)n(-c3c(C)ccnc3C(C)C)c3nc(-c4c(O)cccc4F)c(F)cc23)C(C)C1
Reply | inactive

Ask | Which result was noted for this compound in the test: COc1cc2nccc(Oc3ccc(NC(=O)C4(C(=O)Nc5ccc(F)cc5)CC4)cc3)c2cc1OC + C=CC(=O)N1CCN(c2nc(OCC3CCCN3C)nc3c2CCN(c2cccc4cccc(C)c24)C3)CC1CC#N
Reply | inactive

Ask | Which result was noted for this compound in the test: CC(C)n1nc(-c2ccc3oc(N)nc3c2)c2c(N)ncnc21 + CNCc1ccccc1-c1csc(C(C)Nc2nc(C)nc3cc(OC)c(OC)cc23)c1
Reply | active

Ask | Which result was noted for this compound in the test: CC(C)n1nc(-c2ccc3oc(N)nc3c2)c2c(N)ncnc21 + CC1OCC2(CCN(c3cnc(Sc4ccnc(N)c4Cl)c(N)n3)CC2)C1N
Reply | active

Ask | Which result was noted for this compound in the test: CC1(C)CCC(CN2CCN(c3ccc(C(=O)NS(=O)(=O)c4ccc(NCC5CCOCC5)c([N+](=O)[O-])c4)c(Oc4cnc5[nH]ccc5c4)c3)CC2)=C(c2ccc(Cl)cc2)C1 + C=CC(=O)N1CCN(c2nc(OCC3CCCN3C)nc3c2CCN(c2cccc4cccc(C)c24)C3)CC1CC#N
Reply | inactive
